Test system: Glycine max
experiment.description: Inhibition of soybean lipoxygenase at 100 uM
The source made the active and inactive calls. The calls are words filed in the database; no cut-off is given here.
measured.attribute: inhibition

Here's what some known entries look like.
{"compound": "Cc1c(-c2ccc(O)cc2)c(=O)oc2ccccc12", "inhibition": "inactive"}
{"compound": "COc1ccc(-c2cc3ccccc3oc2=O)cc1OC", "inhibition": "inactive"}
{"compound": "Cc1c(-c2ccccc2Br)c(=O)oc2ccccc12", "inhibition": "6%"}
{"compound": "COc1ccc(-c2c(C)c3ccccc3oc2=O)cc1OC", "inhibition": "31%"}
{"compound": "CC(Cc1ccc(O)c(O)c1)C(C)Cc1ccc(O)c(O)c1 (configuration not stated)", "inhibition": "40%"}
{"compound": "Cc1c(-c2ccc(Br)cc2)c(=O)oc2ccccc12", "inhibition": "inactive"}

# ---- query compound ----
Query block: Entry `COc1ccc(-c2c(C)c3ccccc3oc2=O)cc1` has what inhibition?
Result block: 62%
